sequences and their reported apparent KD of MS2 coat protein
Test system: MS2 coat protein
protocol details: apparent KD of MS2 coat protein; designed switch direction (-1 OFF switch, 1 ON switch): 1; higher = weaker reporter binding
test conditions: input ligand: FMN 200 uM

construct sequence	apparent KD of MS2 coat protein
UUAAUUAAUUAAUUAUACAUGAGGAUCACCCAUGUAAGUGAUCAGGAUAUCAGCUCGAUUAGAGCUGAGAAGGGAUACAUGUAA [SSNG3/13-A2] (Eterna round: R96, puzzle: Same State NG 3)	142 nM
CCGAUUGAUGGAGGAUAUGGAGCCUUAUUGGCUCCAGAAGGCUAAUAACAUGAGGAUCACCCAUGUCGGCGGUCUAAUGACCGA [Eli NG1ss - 54] (Eterna round: R96, puzzle: Same State NG 1)	36.1 nM
GGCCUCUGUCAAGGAUAUGCUACCGUUUCGGUAGCAGAAGGUGAUCACAUGCGGGUCACCCAUGUUUAGGCCCUCUGGCCCGCC (Eterna round: R96, puzzle: Same State NG 1)	19.1 nM

====

Tested on: MS2 coat protein
protocol details: apparent KD of MS2 coat protein; designed switch direction (-1 OFF switch, 1 ON switch): -1; higher = weaker reporter binding
test conditions: input ligand: microRNA oligo, concentration not stated
Could you label it class 1 if measured apparent KD of MS2 coat protein is 10 nM or higher, and class 0 otherwise?

construct sequence	tgt	label class
GUCCGGCAUGUAGGAUAUGGAUCCGAUUAGGAUUUAGAAGGACAUGAGGAUCACCCAUGUACAUUUAAUUAGUCAUUACCGGAC [EXclNG1-LROPPY03] (Eterna round: R96, puzzle: Exclusion NG 1)	MS2 coat protein	class 0
UGAGUGCUGCGAGGAUAUACAUGAGGAUCACCCAUGUAAACGUGUGAGGCUUUGCCUCACACGAUGUAGAAGGCGCAGUACUCU [JL ENG2 1.05] (Eterna round: R96, puzzle: Exclusion NG 2)	MS2 coat protein	class 0
AGCUGUGGCCGAGGAUAUGACAUGAGGAUCACCCAUGUACAUGAUUAGGCCUGGUAACAGGCUCGUCAGAAGGCGGUCUCAGCA [Eli eng2 - 009] (Eterna round: R96, puzzle: Exclusion NG 2)	MS2 coat protein	class 1
GGUACUCAAAGAGUACCAAUACGAACAUGAGGAUCACCCAUGUAGGAUAUGCUACUCAAAGAGUAGCAGAAGGAUAUGAUCCCU [Far Half Aptamer v12] (Eterna round: R96, puzzle: Exclusion NG 3)	MS2 coat protein	class 1
UAAGUUUACCGAGGAUAUGGUCCAUAAUUUUUACCAGAAGGCGGACUCAACAUGAGGAUCACCCAUGUAUAAAGGGUAUUUGGU [JR_ExcNG1_Sub046] (Eterna round: R96, puzzle: Exclusion NG 1)	MS2 coat protein	class 1
GUGGCGGAUGCGAACAUGAGGAUCACCCAUGUACAGUCCCUACAGGAUAUCCGCAGUGCCUAGCAGGAGAAGGGUAGGAGCACA [Eternabot solution 40] (Eterna round: R96, puzzle: Exclusion NG 3)	MS2 coat protein	class 1
GCACGGUUGGUAGGAUAUCCUUGCGAUUAGCAAGGAGAAGGACCACAUGAGGAUCACCCAUGUACCUCAAUUGUCCUUCCGUGC [Eli exng1 - 026] (Eterna round: R96, puzzle: Exclusion NG 1)	MS2 coat protein	class 1
GUCAGCUCGUGAGGAUAUACAUGCGUGCUUCGGCACGUAUGAUAGAUCACAUGAGGAUCACCCAUGUAGAAGGUACGAGCUGAC [ENG2/4-C1] (Eterna round: R96, puzzle: Exclusion NG 2)	MS2 coat protein	class 1
CGUACUAACACGAAAGUGUUAGUACAAUAAGCUUGUGAAACAUGAGGAUCACCCAUGUCCUCAUAAGCUCGUCUUAU [salish99_TOv2_r3_007] (Eterna round: R96, puzzle: Sensor v3, turn-off variant 2)	MS2 coat protein	class 1
